PBM E-score overview
Target: Ybr033w (UniProt P38073)
Sequence: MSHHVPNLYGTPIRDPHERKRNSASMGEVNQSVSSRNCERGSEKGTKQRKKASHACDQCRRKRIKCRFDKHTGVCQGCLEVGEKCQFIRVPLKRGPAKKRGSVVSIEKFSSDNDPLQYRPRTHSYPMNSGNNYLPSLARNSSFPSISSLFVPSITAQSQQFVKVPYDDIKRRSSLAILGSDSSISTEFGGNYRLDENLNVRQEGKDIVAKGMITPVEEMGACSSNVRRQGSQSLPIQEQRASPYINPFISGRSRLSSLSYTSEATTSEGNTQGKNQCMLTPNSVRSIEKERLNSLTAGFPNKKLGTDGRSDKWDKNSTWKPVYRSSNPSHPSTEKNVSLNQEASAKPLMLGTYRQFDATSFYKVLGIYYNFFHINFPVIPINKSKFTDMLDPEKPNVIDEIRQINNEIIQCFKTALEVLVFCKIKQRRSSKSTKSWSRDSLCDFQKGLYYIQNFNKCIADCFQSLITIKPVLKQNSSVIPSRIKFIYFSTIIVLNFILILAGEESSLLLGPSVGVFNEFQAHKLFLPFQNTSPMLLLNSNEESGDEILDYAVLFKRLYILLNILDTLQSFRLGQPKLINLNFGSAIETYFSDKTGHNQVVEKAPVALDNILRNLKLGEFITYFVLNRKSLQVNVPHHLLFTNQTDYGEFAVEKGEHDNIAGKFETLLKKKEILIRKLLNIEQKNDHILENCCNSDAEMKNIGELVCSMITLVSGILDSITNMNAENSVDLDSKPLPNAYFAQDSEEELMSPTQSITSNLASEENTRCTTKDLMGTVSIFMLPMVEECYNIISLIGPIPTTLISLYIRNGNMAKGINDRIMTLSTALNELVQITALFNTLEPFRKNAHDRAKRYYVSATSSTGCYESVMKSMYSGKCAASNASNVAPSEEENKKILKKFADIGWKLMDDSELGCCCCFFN
Experiment: PBM E-score (8-mer binding enrichment) (E-score (-0.5 to 0.5)); higher = stronger / more preferred TF binding
Settings: protein concentration: 200 nM; construct: GST-full length
In all, about 33,000 sequences were measured (“E-score (-0.5 to 0.5)”: median about -0.012, highest 2% from about 0.29 on). The sample as a whole holds a higher share of the highest values than the screen did.

Answered examples (5):
TAAACTTA :: 0.166
CTTAACAC :: 0.112
AATTTTAA :: 0.285
AAATTACG :: 0.111
AATGATTC :: 0.306

Identify measured PBM E-score associated with `CATGATCC`
0.0454

Identify measured PBM E-score associated with `TTCTAGAA`
0.102

Identify measured PBM E-score associated with `AAAAGTAT`
0.13

Identify measured PBM E-score associated with `AATGATCC`
0.421
